# assay_remarks: differential killing of epithelial or mesenchymal cells, primary screen, imaging, PC-3E GFP, TEM4-18 mCherry, co-culture (AID 1345086);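 note: cells exposed to compound for 72 h before imaging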
# details: imaging cell counts, measured here: epithelial PC-3E GFP cell survival, at 1 µM
normalised cell number overview
Hey, just send me the number, nothing else.

molecule	test_value
CC1(C)C2CC(=O)[C@]3(C)C(CC[C@@]4(C)[C@H](c5ccoc5)OC(=O)C5OC543)[C@@]2(C)[C@@H](O)C[C@H]1O (some centres undefined)	0.78

Which normalised cell number is listed for Clc1ccc(CSC(Cn2ccnc2)c2ccc(Cl)cc2Cl)cc1 (centres undefined) ?
1.1

Please give the result for N#CC(O[C@@H]1O[C@H](CO[C@@H]2O[C@H](CO)[C@@H](O)[C@H](O)[C@H]2O)[C@@H](O)[C@H](O)[C@H]1O)c1ccccc1 (some centres undefined) too.
0.94

Please give the result for CC(C)(C)NCC(O)c1cc(Cl)c(N)c(Cl)c1 (centres undefined) too.
1.05

* * *

inhibition overview
# Tested on: Hepatitis C virus NS3 helicase
# assay_remarks: HCV NS3 helicase inhibitors, primary screen, biochemical, fluorescence polarization, LOPAC1280 library (AID 687035)
# details: Purified HCV NS3 helicase, Cy5-dT15 ssDNA binding fluorescence polarization; stronger effect = higher value; concentration not given here
Give the value in % but do not write % after it.

molecule	uom	test_value
NC(Cc1ccc(N(CCCl)CCCl)cc1)C(=O)O (stereo not drawn)	%	-5

Which inhibition is listed for O=P1(N(CCCl)CCCl)NCCCO1 (stereo not drawn) ?
-3

Please give the result for CC(=O)NBr too.
-1

Please give the result for CC(=O)[C@H]1CC[C@H]2[C@@H]3CC[C@H]4C[C@](C)(O)CC[C@]4(C)[C@H]3CC[C@]12C too.
-2

Please give the result for CC(C)(C)c1o[nH]c(=O)c1CC(N)C(=O)O (stereo not drawn) too.
-1

Please give the result for O=P(O)(O)C(Cl)(Cl)P(=O)(O)O too.
-2

Please give the result for NC(C(=O)O)c1cc(=O)[nH]o1 (stereo not drawn) too.
-1

Please give the result for COc1ccc2c(c1O)-c1cccc3c1[C@@H](C2)N(C)CC3 too.
-4

Please give the result for CN(N=O)c1cc(O)ccc1O too.
-1

Please give the result for CCCN(CCC)C1CCc2ccc(O)cc2C1 (stereo not drawn) too.
-4

* * *

# assay_remarks: sensitizers of A549 cells to miR-34 induction, primary screen, imaging, A549 dox-inducible miR-34, nuclei and caspase counts (AID 1347080)
# details: A549 miR-34 inducible, Hoechst nuclei count, 48 h; measured here: relative caspase fold change +Dox/-Dox
Threshold 1. fold change below it: yes. fold change at it or above: no.

molecule	assigned_category
CC1CC[C@H]2C(C)C(=O)O[C@@H]3O[C@@]4(C)CC[C@@H]1[C@]32OO4 (stereo not given in full)	yes
N#CC(C#N)=Cc1ccc(O)cc1	no
C/C=C1/C[N+]2(C)CCC34C(=C(C=O)[C@H]1C[C@@H]32)Nc1ccccc14 (stereo not given in full)	no

Next, consider the following molecule.
I wonder whether CCCCC/C=C\C/C=C\C/C=C\C/C=C\CCCC(=O)N[C@@H](C)C(=O)O has fold change below 1. Can you tell?
no

* * *

remaining activity overview
# Tested on: Aerobactin synthetase IucA (Klebsiella pneumoniae)
# assay_remarks: IucA aerobactin synthetase inhibitors, biochemical, Tocris library, absorbance (AID 1345561);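 note: 100% = enzyme without compound and 0% = no enzyme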
# details: purified IucA enzyme assay, absorbance (OD) read-out; stronger effect = lower value; concentration not given here
Give the value in % but do not write % after it.

molecule	remaining activity [%]
O=C1NCN(c2ccccc2)C12CCN(CC1COc3ccccc3O1)CC2 (configuration not stated)	104
COc1ccc2c(c1)c(CCN1CCOCC1)c(C)n2C(=O)c1cccc(Cl)c1Cl	101
O=C(O)c1ccc2[nH]cc(CCCCN3CC=C(c4ccccc4)CC3)c2c1	115

Hi! What's the reported remaining activity for CCOC(=O)c1ncn2c1[C@@H]1CCCN1C(=O)c1cc(OC)ccc1-2 on Aerobactin synthetase IucA (Klebsiella pneumoniae)?
125

Please give the result for Cc1[nH]c2ccc(O)cc2c1CCN too.
104
